molecular target: Vasopressin V2 receptor (Homo sapiens, UniProt P30518); assay: Agonist activity at recombinant human vasopressin V2 receptor expressed in HEK293 cells by luciferase reporter gene assay; type: functional, cell-based; details: read-out: EC50
Sequence (P30518 whole entry): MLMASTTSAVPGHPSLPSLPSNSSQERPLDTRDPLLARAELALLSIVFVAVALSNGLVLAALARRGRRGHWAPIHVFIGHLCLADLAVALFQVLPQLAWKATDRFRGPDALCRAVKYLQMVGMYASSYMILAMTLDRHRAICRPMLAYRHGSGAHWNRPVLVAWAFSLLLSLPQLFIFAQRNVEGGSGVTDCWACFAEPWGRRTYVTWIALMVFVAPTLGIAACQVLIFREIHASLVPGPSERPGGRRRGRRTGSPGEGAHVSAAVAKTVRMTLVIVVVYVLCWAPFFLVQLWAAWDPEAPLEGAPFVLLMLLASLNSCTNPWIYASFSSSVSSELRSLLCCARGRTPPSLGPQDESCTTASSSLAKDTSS
Bridge positions count the residues as written; N and C are the ends. Square brackets hold non-standard residues; d marks the D form. Peptide text beside a SMILES is read from it. Ala(2-furyl) = N[C@@H](Cc1ccco1)C(=O)O; Orn(iPr) = CC(C)NCCC[C@H](N)C(=O)O; Dab = NCC[C@H](N)C(=O)O
value-type: pEC50
Scale explanation: pEC50 corresponds to minus log10 of a concentration expressed in moles per litre.

Example entries and their recorded answers appear below.
| molecule | experimental-value |
| --- | --- |
| CC[C@H](C)[C@@H]1NC(=O)[C@H](Cc2ccccc2)NC(=O)[C@@H](N)CSSC[C@@H](C(=O)N2CCC[C@H]2C(=O)N[C@@H](CCCNC(C)C)C(=O)NCC(N)=O)NC(=O)[C@H](CC(N)=O)NC(=O)[C@H](CC(N)=O)NC1=O (H-CFINNCP[Orn(iPr)]G-NH2; disulfide 1-6) | 5.43 |
| CC[C@H](C)[C@@H]1NC(=O)[C@H](Cc2ccccc2)NC(=O)[C@@H](N)CSSC[C@@H](C(=O)N2CCC[C@H]2C(=O)N[C@@H](CCCNC(C)C)C(=O)NCC(N)=O)NC(=O)[C@H](CC(N)=O)NC(=O)[C@H](CCC(N)=O)NC1=O (H-CFIQNCP[Orn(iPr)]G-NH2; disulfide 1-6) | 6.54 |

Enquiry: Query: pEC50; subject: CC[C@H](C)[C@@H]1NC(=O)[C@H](Cc2ccco2)NC(=O)[C@@H](N)CSSC[C@@H](C(=O)N2CCC[C@H]2C(=O)N[C@@H](CCN)C(=O)NCC(N)=O)NC(=O)[C@H](CC(N)=O)NC(=O)[C@H](CCC(N)=O)NC1=O (H-C[Ala(2-furyl)]IQNCP[Dab]G-NH2; disulfide 1-6)
Return: 6.48

// data source = ChEMBL document CHEMBL1817572
